// provenance: PubChem BioAssay AID1159580

assay method text: chemical genetic growth profiling, strain panel (AID 1159580);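 note: tested at 20 µM; growth read once vehicle control cultures reached saturation at 30 °C; 1 = growth at the plate median or of vehicle wells; lower values mean less growth of the strain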
reported conditions: S. cerevisiae deletion strains, growth OD, locus YNL209W, strain ssb2, stronger effect = lower value
Among all 5,500 compounds or so, about 2,000 (36%) were called active. Not shown: some 18% with an inconclusive outcome. Some of the results follow.
value kind: normalized growth

>>> recorded_number("CN[C@@H]1[C@@H](O[C@H]2O[C@H](CO)[C@@H](N)[C@H](O)[C@H]2O)O[C@H]2C[C@@H](N)[C@H](O[C@H]3[C@H](O)[C@@H](O)[C@H](N)C[C@@H]3N)O[C@@H]2[C@@H]1O")
0.996
>>> recorded_number("COc1cc(NS(=O)(=O)c2ccc(N)cc2)ncn1")
0.975
>>> recorded_number("COC1(C)CCC2OC2(C)CCC2C1CC2(C)C (stereo not given)")
1.01
>>> recorded_number("CC(=O)OCC(=O)[C@@]1(O)CCC2C3CCC4=CC(=O)CC[C@]4(C)C3[C@@H](O)C[C@@]21C (stereo not given in full)")
1.02
>>> recorded_number("COc1cnc(NS(=O)(=O)c2ccc(N)cc2)nc1")
0.997
>>> recorded_number("O=C(CCBr)N1CCN(C(=O)CCBr)CC1")
1.02
>>> recorded_number("NC[C@H]1O[C@H](O[C@H]2C(O[C@@H]3O[C@H](CO)[C@@H](O)[C@H]3O)[C@@H](O)[C@H](N)C[C@@H]2N)[C@H](N)[C@@H](O)[C@@H]1O (stereo not given in full)")
1
>>> recorded_number("COc1ccc2c(=O)ccoc2c1")
1.02
>>> recorded_number("NC(=O)NO")
1.02
>>> recorded_number("COc1c2ccoc2cc2oc(C)cc(=O)c12")
0.983
